experiment: Duration (time) of SCID mouse free plasma concentration cover over EGFR insSVD cell IC50 at 50 mg/kg, po
Assay type: ADME, organism-based
assay-context: in vivo
endpoint: Time (h)

P: C=CC(=O)N1CC[C@H](n2cc(-c3ccncc3)c(-c3cccc(NC(=O)c4cn(C5CC5)cn4)c3)n2)C1
Q: C=CC(=O)N1CC[C@H](n2cc(-c3ccncc3)c(-c3cccc(/C=C/c4ccc5c(c4)CN(C)C5=O)c3)n2)C1
Exam item: Which record shows the lower Time: the first, P , or the second, Q ? Use the label to indicate which entry you chose.
Marked response: Q

----------
experiment: Metabolic stability in CD-1 mouse hepatocytes assessed as intrinsic clearance measured per 10^6 cells at 1 uM incubated for 120 mins by LC-MS/MS analysis
Format: ADME, cell-based, Hepatocyte
assay-context: read-out: CLH
endpoint: hepatocyte CLint at 1 µM (µL/min/1e6 cells)

# count of solved cases: 5
- compound-structure-string: "C=CC(=O)N1CC[C@H](n2cc(-c3ccncc3)c(-c3cccc(/C=C/c4ncc(C5CC5)o4)c3)n2)C1"
  recorded-number: 35
- compound-structure-string: "C=CC(=O)N1CC(n2cc(-c3ccncc3)c(-c3cccc(/C=C/c4ncc(C5CC5)o4)c3)n2)C1"
  recorded-number: 64
- compound-structure-string: "C=CC(=O)N1CC[C@H](n2cc(-c3ccncc3)c(-c3cccc(OCc4ccc5c(c4)CN(C)C5=O)c3)n2)C1"
  recorded-number: 64
- compound-structure-string: "C=CC(=O)N1CC[C@H](n2cc(-c3ccncc3)c(-c3cccc(/C=C/c4ccc5c(c4)CN(C)C5=O)c3)n2)C1"
  recorded-number: 29
- compound-structure-string: "C=CC(=O)N1C[C@@H](n2cc(-c3ccncc3)c(-c3cccc(COc4ccc5c(c4)CN(C)C5=O)c3)n2)C[C@H]1C"
  recorded-number: 30

1: C=CC(=O)N1CC[C@H](n2cc(-c3ccncc3)c(-c3cccc(NC(=O)c4cn(C5CC5)cn4)c3)n2)C1
2: C=CC(=O)N1CC(n2cc(-c3ccncc3)c(-c3cccc(NC(=O)c4cn(C5CC5)cn4)c3)n2)C1
Exam item: Among 1 and 2 , which shows a numerically higher hepatocyte CLint at 1 µM result? Label of pick, please.
Marked response: 2
(2: 150 µL/min/1e6 cells, 1: 42 µL/min/1e6 cells)

----------
experiment: Intrinsic permeability in human Caco-2 cells at 10 uM
Format: ADME, cell-based
assay-context: read-out: permeability
endpoint: Papp at 10 µM (×10⁻⁶ cm/s)

- compound-structure-string: "C=CC(=O)N1CC[C@H](n2cc(-c3ccncc3)c(-c3cccc(NC(=O)c4cccc(OC)c4F)c3)n2)C1"
  Papp at 10 µM / ×10⁻⁶ cm/s: 42

A: C=CC(=O)Nc1ccc(OC)c(Nc2nccc(-c3c[nH]nc3-c3cccc(OC)c3)n2)c1
B: C=CC(=O)N1CC[C@H](n2cc(-c3ccncc3)c(-c3cccc(NC(=O)c4ncc(C5CC5)o4)c3)n2)C1
C: C=CC(=O)Nc1ccc(OC)c(Nc2cc(-c3c[nH]nc3-c3cccc(OCc4ccc5c(c4)CN(C)C5=O)c3)ccn2)c1
Exam item: List from greatest to least Papp at 10 µM. // ordering of labels required in reply
Marked response: A, B, C
(A: 64 ×10⁻⁶ cm/s, B: 30 ×10⁻⁶ cm/s, C: 7.5 ×10⁻⁶ cm/s)
